Molecular target: Cathepsin K (Homo sapiens, UniProt P43235)
Sequence (P43235 whole entry): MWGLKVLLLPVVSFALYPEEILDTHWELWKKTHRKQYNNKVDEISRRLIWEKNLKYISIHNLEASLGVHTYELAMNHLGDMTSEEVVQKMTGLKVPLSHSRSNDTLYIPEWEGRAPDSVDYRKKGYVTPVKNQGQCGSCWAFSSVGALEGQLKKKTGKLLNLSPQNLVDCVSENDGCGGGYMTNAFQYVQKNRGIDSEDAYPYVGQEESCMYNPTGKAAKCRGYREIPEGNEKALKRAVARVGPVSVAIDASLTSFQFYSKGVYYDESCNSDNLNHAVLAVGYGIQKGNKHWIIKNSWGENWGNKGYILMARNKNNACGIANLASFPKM
pIC50: −log10 of the molar value.
Measured Endpoint: pIC50

> print(dat)
                                   molecule  measurement.qualifier  assay.value
1  CC(C)CC(C(=O)NCC#N)c1cccc(-c2cncnc2)c1 (stereo not given)                      =         5.98
2  CC(C)CC(C(=O)NCC#N)c1cccc(-c2ccc(N3CCN(CC(C)(C)O)CC3)cc2)c1 (stereo not given)                      =         8.22
3  CC(C)CC(C(=O)NCC#N)c1cccc(-c2ccc(N3CCN(CC(C)(C)N)CC3)cc2)c1 (stereo not given)                      =         7.80
4  CN1CCN(c2ccc(-c3cccc(CC(=O)NCC#N)c3)cc2)CC1                      <         5.00
5  CC(C)CC(C(=O)NCC#N)c1cccc(-c2ccc(C34CCN(CC3)CC4)cc2)c1 (stereo not given)                      =         7.43
